These measurements were taken from the supplement of paper PMC7125110.

B1: glmS ribozyme (parent)
chain: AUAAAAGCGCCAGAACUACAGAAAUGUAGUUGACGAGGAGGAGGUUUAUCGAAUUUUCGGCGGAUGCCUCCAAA

# Variants of: B1
# METHOD_SUMMARY: self-cleavage kobs at 40 uM GlcN6P; higher = faster cleavage; RNA array
# CONDITION_DESCRIPTION: with glucosamine-6-phosphate
This sample holds only a part of the variants without activity.
VALUE_KIND: self-cleavage kobs at 40 uM GlcN6P

Please review the entries below; each comes with its answer.
| VARIANT_LABEL | self-cleavage kobs at 40 uM GlcN6P |
| --- | --- |
| A14G C71A | 0.000515 s⁻¹ |
| A15C U55G | 0.000128 s⁻¹ |

Here are 7 variants. What values of self-cleavage kobs at 40 uM GlcN6P were reported for them?
1. G32A C58U
2. A39G G66C
3. U54A C58G
4. C16U C71U
5. C10G G29C G40A
6. C16A G26A C68G
7. A6U C50A

Response:
1. < 1e-05 s⁻¹
2. 7.7e-05 s⁻¹
3. < 1e-05 s⁻¹
4. 0.000761 s⁻¹
5. < 1e-05 s⁻¹
6. 3.64e-05 s⁻¹
7. < 1e-05 s⁻¹

Here are 8 variants. What values of self-cleavage kobs at 40 uM GlcN6P were reported for them?
1. G9C C16U U47G C61U
2. U30G U31G U46G U55A
3. A15G U49G
4. A14U U31A
5. C8G C67A
6. U46A A48U U57A G60U C67U C68A
7. C34A A39G A48U C68A
8. A6C U46A U49A

Response:
< 1e-05 s⁻¹
0.000118 s⁻¹
4.65e-05 s⁻¹
0.000492 s⁻¹
< 1e-05 s⁻¹
< 1e-05 s⁻¹
< 1e-05 s⁻¹
< 1e-05 s⁻¹

Here are 7 variants. What values of self-cleavage kobs at 40 uM GlcN6P were reported for them?
1. A6C G37U
2. C11G A36G C67U
3. G40U U47C
4. C34G A53G U56G C67U
5. G7U A33G U55A
6. A48G U65G
7. C34G G41C G66U

Response:
< 1e-05 s⁻¹
< 1e-05 s⁻¹
3.24e-05 s⁻¹
< 1e-05 s⁻¹
< 1e-05 s⁻¹
< 1e-05 s⁻¹
< 1e-05 s⁻¹

Here are 2 variants. What values of self-cleavage kobs at 40 uM GlcN6P were reported for them?
1. A12U U56A U65G
2. U54G C61G

Response:
["6.29e-05 s⁻¹", "< 1e-05 s⁻¹"]

Here are 6 variants. What values of self-cleavage kobs at 40 uM GlcN6P were reported for them?
1. G44A U45G
2. G41U C61G
3. U54G U56A U69G
4. C11U A52C
5. G43C A53G C68U
6. C34A G51C

Response:
1: 9.22e-05 s⁻¹; 2: < 1e-05 s⁻¹; 3: 4.11e-05 s⁻¹; 4: < 1e-05 s⁻¹; 5: 5.01e-05 s⁻¹; 6: < 1e-05 s⁻¹

Here are 2 variants. What values of self-cleavage kobs at 40 uM GlcN6P were reported for them?
1. C10A A48G U49G
2. U49C C58U

Response:
1: < 1e-05 s⁻¹; 2: < 1e-05 s⁻¹

Here are 4 variants. What values of self-cleavage kobs at 40 uM GlcN6P were reported for them?
1. U30C G38U C61U
2. G37U G40A G59U
3. C8G C61U G66A C70U
4. A12C C16U G41U

Response:
< 1e-05 s⁻¹
< 1e-05 s⁻¹
< 1e-05 s⁻¹
6.93e-05 s⁻¹

Here are 5 variants. What values of self-cleavage kobs at 40 uM GlcN6P were reported for them?
1. A14G A33G G59U
2. A6G G35U A42G U46G G66U
3. G32A G43U C67U
4. A6U U55C C71A
5. G13A A15C G38U A48G A52C

Response:
["< 1e-05 s⁻¹", "< 1e-05 s⁻¹", "< 1e-05 s⁻¹", "< 1e-05 s⁻¹", "< 1e-05 s⁻¹"]

Here are 2 variants. What values of self-cleavage kobs at 40 uM GlcN6P were reported for them?
1. U30A A39U
2. G38U G40U

Response:
0.000191 s⁻¹
< 1e-05 s⁻¹
